B1: Hairpin Ribozyme (parent)
chain: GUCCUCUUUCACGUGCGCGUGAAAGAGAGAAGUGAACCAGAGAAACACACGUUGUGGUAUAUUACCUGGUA

Variants of: B1
Experiment: self-cleavage, relative activity (ratio to wild type); higher = more cleavage; co-transcriptional
In this section we review reported self-cleavage values for a set of variants.
measurement_kind: self-cleavage

    mutant_name  measurement_kind  quantitative_readout
 0    A23G G69A     self-cleavage                 0.369
 1    G57A A59C     self-cleavage                 0.142
 2     C4A A45U     self-cleavage                 0.148
 3     U7A G56A     self-cleavage                 0.182
 4    G15U G57U     self-cleavage                 0.296
 5    A64U U67G     self-cleavage                  0.13
 6    C10G G19C     self-cleavage                 0.539
 7    U14C A26C     self-cleavage                 0.727
 8    U62C C65A     self-cleavage                 0.212
 9    A31C U70G     self-cleavage                0.0868
10    A49U G57U     self-cleavage                 0.228
11     U9A U33C     self-cleavage                 0.177
12    C10G A59G     self-cleavage                 0.171
13     U5C G15U     self-cleavage                 0.574
14     C6U U58C     self-cleavage                 0.893
15    A41G C66A     self-cleavage                 0.355
16    G13C A64U     self-cleavage                 0.128
17    A11U A39G     self-cleavage                 0.342
18    G27C G29C     self-cleavage                 0.163
19    A28G A64C     self-cleavage                 0.165
20     C6U G25A     self-cleavage                 0.751
21    A26G C37U     self-cleavage                 0.602
22    A28U G29A     self-cleavage                0.0881
23     G1A U14G     self-cleavage                 0.195
24    A24G C65G     self-cleavage                 0.296
25    G40C G56C     self-cleavage                 0.122
26    U20C G69C     self-cleavage                 0.239
27    G27C U58A     self-cleavage                 0.123
28     C6U U67C     self-cleavage                 0.222
29     C3A U67C     self-cleavage                 0.155
30     U2C G42A     self-cleavage                0.0595
31    G27U U70A     self-cleavage                 0.172
32    A30C U70G     self-cleavage                0.0924
33    C10G G34C     self-cleavage                  1.08
34     U5C G69A     self-cleavage                 0.158
35     C6U A36C     self-cleavage                 0.705
36    G29U G68U     self-cleavage                 0.176
37    C12A U63C     self-cleavage                   0.2
38     U5G A24G     self-cleavage                 0.331
39    G17A U20A     self-cleavage                 0.759
40    C10U A47U     self-cleavage                 0.109
41    U14G G17A     self-cleavage                 0.854
42    G25C U67C     self-cleavage                 0.134
43    A41U A64C     self-cleavage                 0.153
44    C50A G56C     self-cleavage                 0.104
45     C4U C38G     self-cleavage                0.0751
46    G56C U62G     self-cleavage                 0.129
47     G1U G19C     self-cleavage                 0.105
48    U14A G34U     self-cleavage                  1.47
49    A11U A59C     self-cleavage                 0.137
50    A44C A64U     self-cleavage                 0.155
51    G32C G40U     self-cleavage                 0.086
52    A24G G34U     self-cleavage                 0.956
53    A24U A41C     self-cleavage                   1.1
54    G19U A30C     self-cleavage                 0.128
55     U5A U55C     self-cleavage                 0.157
56    A36U G69A     self-cleavage                 0.173
57     U8A U55C     self-cleavage                 0.322
58     G1A U55G     self-cleavage                0.0224
59    A26C A47U     self-cleavage                0.0646
60    U58C A61G     self-cleavage                     0
61      C4G U5G     self-cleavage                0.0498
62    C38G C66U     self-cleavage                  0.21
63    A45G U60G     self-cleavage                 0.187
64    A44G U63C     self-cleavage                  0.21
65    G19U G54C     self-cleavage                 0.437
66    U53G A59U     self-cleavage                 0.119
67    A23U A31G     self-cleavage                 0.805
68    U14A G51A     self-cleavage                 0.957
69    C12A U55C     self-cleavage                 0.208
70     C3U A59U     self-cleavage                 0.205
71    C46U U63C     self-cleavage                 0.106
72     G1U G13A     self-cleavage                0.0563
73    A43C G56U     self-cleavage                 0.141
74     C4G A23U     self-cleavage                 0.147
75    C18A A49G     self-cleavage                  0.54
76    G17C A71U     self-cleavage                 0.639
77    A44U A59G     self-cleavage                 0.253
